# TARGET_OR_SYSTEM: P2X purinoceptor 4 (Homo sapiens)
# Sequence (Q99571 whole entry): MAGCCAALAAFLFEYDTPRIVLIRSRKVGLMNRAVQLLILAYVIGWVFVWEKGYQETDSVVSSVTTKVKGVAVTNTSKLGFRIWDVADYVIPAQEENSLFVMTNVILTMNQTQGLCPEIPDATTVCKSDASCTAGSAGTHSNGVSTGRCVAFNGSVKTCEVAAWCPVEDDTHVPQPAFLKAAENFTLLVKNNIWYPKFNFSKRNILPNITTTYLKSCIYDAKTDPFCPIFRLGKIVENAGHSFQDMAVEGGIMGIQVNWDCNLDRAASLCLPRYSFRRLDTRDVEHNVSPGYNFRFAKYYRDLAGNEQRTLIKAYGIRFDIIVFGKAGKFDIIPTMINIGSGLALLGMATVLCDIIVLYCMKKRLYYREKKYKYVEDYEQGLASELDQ
# ASSAY_DETAILS: Antagonist activity at human P2X4 receptor expressed in human 1321N1 cells assessed as reduction in intracellular Ca2+ influx incubated for 30 mins by Fura-2 AM based fluorescence assay
ENDPOINT: IC50 (µM)

Value wanted: IC50 (P2X purinoceptor 4 (Homo sapiens)) of entry O=C(NC(=S)Nc1cc(Br)cc(C(F)(F)F)c1)C12CC3CC(CC(C3)C1)C2 4.53

I. O=C(NC(=S)Nc1cc(Br)ccc1Br)C12CC3CC(CC(C3)C1)C2
II. NS(=O)(=O)c1ccccc1NC(=S)NC(=O)C12CC3CC(CC(C3)C1)C2
Which record shows the lower IC50: the first, I , or the second, II ? In your reply, give the label of the chosen option. II

###

# TARGET_OR_SYSTEM: P2X purinoceptor 2 (Homo sapiens)
# Sequence (whole entry): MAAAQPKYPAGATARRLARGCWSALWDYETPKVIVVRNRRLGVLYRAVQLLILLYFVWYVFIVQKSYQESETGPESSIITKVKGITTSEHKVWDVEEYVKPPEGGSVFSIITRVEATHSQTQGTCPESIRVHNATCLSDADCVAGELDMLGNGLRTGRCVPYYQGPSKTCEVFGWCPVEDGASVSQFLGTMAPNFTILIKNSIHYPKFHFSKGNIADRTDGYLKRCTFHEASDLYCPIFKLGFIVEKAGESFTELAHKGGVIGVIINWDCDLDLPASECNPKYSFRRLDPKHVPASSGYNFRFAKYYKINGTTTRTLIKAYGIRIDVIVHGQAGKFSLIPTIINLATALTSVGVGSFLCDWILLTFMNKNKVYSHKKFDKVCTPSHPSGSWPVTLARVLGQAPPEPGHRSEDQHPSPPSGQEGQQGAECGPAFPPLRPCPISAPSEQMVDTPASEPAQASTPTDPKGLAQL
# ASSAY_DETAILS: Antagonist activity at human P2X2 receptor expressed in human 1321N1 cells assessed as reduction in intracellular Ca2+ influx incubated for 30 mins by Fura-2 AM based fluorescence assay relative to control
# Format: cell-based
ENDPOINT: inhibition (%)

Item O=C(NC(=S)Nc1cccc(O)c1)C12CC3CC(CC(C3)C1)C2 has what recorded inhibition? 33

Try O=C(O)C12CC3CC(CC(C3)C1)C2 next. 12

Now consider O=C(NC(=S)Nc1cccnc1Cl)C12CC3CC(CC(C3)C1)C2 . 13

Continue with O=C(NC(=S)Nc1ccc(Br)cc1)C12CC3CC(CC(C3)C1)C2 35

Note, next up: O=C(NC(=S)Nc1ccc(O)cc1)C12CC3CC(CC(C3)C1)C2 38

Moving on to the next compound: O=C(NC(=S)Nc1ccccc1O)C12CC3CC(CC(C3)C1)C2 33

1. NS(=O)(=O)c1ccccc1NC(=S)NC(=O)C12CC3CC(CC(C3)C1)C2
2. O=C(NC(=S)Nc1cc(Br)cc(C(F)(F)F)c1)C12CC3CC(CC(C3)C1)C2
// returns 1 or 2 , whichever has the lower inhibition // caller expects the label of the chosen entry 2
(2: 5%, 1: 18%)

A. CN(C)CCCNC(=S)NC(=O)C12CC3CC(CC(C3)C1)C2
B. Cc1cc(Br)ccc1NC(=S)NC(=O)C12CC3CC(CC(C3)C1)C2
Of A and B , which carries the smaller reported inhibition figure? Mark your selection by writing its label. A
(A: 2%, B: 22%)

###

# TARGET_OR_SYSTEM: P2X purinoceptor 7 (Homo sapiens)
# ASSAY_DETAILS: Negative allosteric modulation activity at human P2X7 receptor expressed in human 1321N1 cells assessed as reduction in intracellular Ca2+ influx incubated for 30 mins by Fura-2 AM based fluorescence assay
# Type: cell-based
ENDPOINT: pIC50
Note: pIC50 values are expressed as the negative base-10 logarithm of concentration in M.

Which pIC50 is listed for CC(C)c1ccc(NC(=S)NC(=O)C23CC4CC(CC(C4)C2)C3)c(Br)c1 ? 4.60

###

# TARGET_OR_SYSTEM: P2X purinoceptor 7 (Homo sapiens)
# Sequence (whole entry): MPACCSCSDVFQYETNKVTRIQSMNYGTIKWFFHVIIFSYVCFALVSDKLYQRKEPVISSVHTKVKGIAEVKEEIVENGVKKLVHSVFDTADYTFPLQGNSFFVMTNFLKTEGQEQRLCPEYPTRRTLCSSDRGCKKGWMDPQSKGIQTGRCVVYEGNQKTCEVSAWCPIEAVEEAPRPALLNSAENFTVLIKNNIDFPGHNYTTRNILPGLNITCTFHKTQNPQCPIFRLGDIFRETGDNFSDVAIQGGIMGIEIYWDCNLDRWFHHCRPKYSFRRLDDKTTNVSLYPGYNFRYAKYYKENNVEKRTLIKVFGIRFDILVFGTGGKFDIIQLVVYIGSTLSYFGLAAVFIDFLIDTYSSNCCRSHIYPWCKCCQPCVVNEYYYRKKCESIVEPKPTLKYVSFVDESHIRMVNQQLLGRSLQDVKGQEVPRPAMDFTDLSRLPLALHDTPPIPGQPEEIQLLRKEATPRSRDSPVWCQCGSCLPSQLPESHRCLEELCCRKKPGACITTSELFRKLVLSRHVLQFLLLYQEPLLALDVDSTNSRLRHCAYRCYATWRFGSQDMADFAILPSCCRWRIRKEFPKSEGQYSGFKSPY
# ASSAY_DETAILS: Antagonist activity at human P2X7 receptor expressed in human 1321N1 cells assessed as reduction in intracellular Ca2+ influx incubated for 30 mins by Fura-2 AM based fluorescence assay relative to control
# Assay type: cell-based
ENDPOINT: inhibition (%)

Here are 5 compounds together with their reported answers.
Which inhibition is reported for this compound? O=C(NC(=S)Nc1cccc(O)c1)C12CC3CC(CC(C3)C1)C2 19

Cool, now O=C(O)C12CC3CC(CC(C3)C1)C2 11

Same question for COc1ccc(NC(=S)NC(=O)C23CC4CC(CC(C4)C2)C3)cc1 please. 0

Can you check CN(C)CCCNC(=S)NC(=O)C12CC3CC(CC(C3)C1)C2 next? 10

For COc1cccc(NC(=S)NC(=O)C23CC4CC(CC(C4)C2)C3)c1 then? 15

1. Cc1cc(Br)ccc1NC(=S)NC(=O)C12CC3CC(CC(C3)C1)C2
2. O=C(NC(=S)Nc1cc(Br)ccc1Br)C12CC3CC(CC(C3)C1)C2
So which one has the bigger inhibition here, 1 or 2 ? Answer by quoting the chosen item's label. 1
(1: 18%, 2: 11%)

###

# TARGET_OR_SYSTEM: P2X purinoceptor 5 (Homo sapiens, UniProt Q93086)
# Sequence (Q93086 whole entry): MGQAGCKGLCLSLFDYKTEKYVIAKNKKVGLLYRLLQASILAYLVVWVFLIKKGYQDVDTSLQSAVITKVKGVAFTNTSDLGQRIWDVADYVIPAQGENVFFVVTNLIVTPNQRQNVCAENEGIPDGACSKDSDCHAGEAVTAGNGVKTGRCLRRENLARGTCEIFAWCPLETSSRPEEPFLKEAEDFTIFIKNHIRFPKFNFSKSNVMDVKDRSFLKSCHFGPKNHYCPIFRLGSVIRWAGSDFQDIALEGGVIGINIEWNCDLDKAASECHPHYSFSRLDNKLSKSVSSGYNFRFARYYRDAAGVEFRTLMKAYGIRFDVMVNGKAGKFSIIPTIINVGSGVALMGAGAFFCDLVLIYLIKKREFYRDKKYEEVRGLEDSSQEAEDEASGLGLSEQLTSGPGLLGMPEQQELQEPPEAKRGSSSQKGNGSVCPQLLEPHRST
# ASSAY_DETAILS: Antagonist activity at human P2X5 receptor expressed in human 1321N1 cells assessed as reduction in intracellular Ca2+ influx incubated for 30 mins by Fura-2 AM based fluorescence assay relative to control
# Assay type: cell-based
# RUN_CONDITIONS: filed as antagonist
ENDPOINT: inhibition (%)

Provide value of inhibition for this record tested with P2X purinoceptor 5 (Homo sapiens, UniProt Q93086): O=C(NC(=S)Nc1cccc(O)c1)C12CC3CC(CC(C3)C1)C2 44

How about this compound: COc1cccc(NC(=S)NC(=O)C23CC4CC(CC(C4)C2)C3)c1 45

Request: O=C(NC(=S)Nc1ccc(Br)cc1)C12CC3CC(CC(C3)C1)C2 42

Same question, O=C(NC(=S)Nc1ccccc1O)C12CC3CC(CC(C3)C1)C2 this time 41

Lookup NS(=O)(=O)c1ccccc1NC(=S)NC(=O)C12CC3CC(CC(C3)C1)C2 43

###

# TARGET_OR_SYSTEM: P2X purinoceptor 7 (Homo sapiens, UniProt Q99572)
# ASSAY_DETAILS: Antagonist activity at human P2X7 receptor expressed in human 1321N1 cells assessed as reduction in ethidium bromide dye uptake preincubated for 15 mins followed by BzATP addition and measured after 30 mins by Ethidium bromide dye based fluorescence plate reader analysis
# Type: cell-based
pIC50: −log10 of the molar value.
ENDPOINT: pIC50

# pIC50 lookup, item NS(=O)(=O)c1ccccc1NC(=S)NC(=O)C12CC3CC(CC(C3)C1)C2 6.10

a. O=C(NC(=S)Nc1cccnc1Cl)C12CC3CC(CC(C3)C1)C2
b. O=C(NC(=S)Nc1ccc(O)cc1)C12CC3CC(CC(C3)C1)C2
Higher pIC50 between a and b ? Identify your pick by its label. a

###

# TARGET_OR_SYSTEM: P2X purinoceptor 5 (Homo sapiens, UniProt Q93086)
# ASSAY_DETAILS: Antagonist activity at human P2X5 receptor expressed in human 1321N1 cells assessed as reduction in intracellular Ca2+ influx incubated for 30 mins by Fura-2 AM based fluorescence assay relative to control
# Assay type: cell-based
ENDPOINT: inhibition (%)

# annotated cases, reported inhibition shown
Notebook entry, P2X purinoceptor 5 (Homo sapiens, UniProt Q93086) assay: inhibition of O=C(NC(=S)Nc1cc(Br)ccc1Br)C12CC3CC(CC(C3)C1)C2 = ? 16

Try the compound O=C(NC(=S)Nc1cccnc1Cl)C12CC3CC(CC(C3)C1)C2 25

Please do the same for O=C(O)C12CC3CC(CC(C3)C1)C2 as well. 15

A. CN(C)CCCNC(=S)NC(=O)C12CC3CC(CC(C3)C1)C2
B. Cc1cc(Br)ccc1NC(=S)NC(=O)C12CC3CC(CC(C3)C1)C2
C. O=C(NC(=S)Nc1ccc(O)cc1)C12CC3CC(CC(C3)C1)C2
List from greatest to least inhibition. # list labels per requested ordering C, B, A

a. O=C(NC(=S)Nc1cc(Br)cc(C(F)(F)F)c1)C12CC3CC(CC(C3)C1)C2
b. O=C(NC(=S)Nc1cc([N+](=O)[O-])ccc1Cl)C12CC3CC(CC(C3)C1)C2
Of a and b , whose reported inhibition is the larger number? Refer to your chosen entry by its label in the reply. b
(b: 32%, a: 20%)

Data provenance: ChEMBL document CHEMBL5131484
